# Method: Displacement of thiazole orange from 22AG DNA (unknown origin) preincubated for 10 mins measured after 3 mins by fluorescence spectra analysis
Quantity kind: log10 Kd (log10 of the value in nM)
Please note: log10 values; quantity Kd; unit nM.

NC(=O)/C=C/c1c2ccccc2c(/C=C/C(N)=O)c2ccccc12 1.48
COc1ccc2cc3[n+](cc2c1OC)CCc1cc2c(cc1-3)OCO2 5.33

Quick one: give me log10 Kd for each item below, same order please.
1. O=C(/C=C/c1c2ccccc2c(/C=C/C(=O)N2CCOCC2)c2ccccc12)N1CCOCC1
2. O=C(/C=C/c1c2ccccc2c(Br)c2ccccc12)N1CCOCC1
3. CC(=O)CC(C)(C)NC(=O)/C=C/c1c2ccccc2c(/C=C/C(=O)NC(C)(C)CC(C)=O)c2ccccc12

Reply text:
4.31
2.23
1.85

---

Record form. Attribute: log10 of Kd. Fill in for each entry.
# Method: Displacement of thiazole orange from ds26 DNA (unknown origin) preincubated for 10 mins measured after 3 mins by fluorescence spectra analysis
Each number you see is log10 of Kd, and the unit inside the log is nM.

Examples from the recorded data:
O=C(/C=C/c1c2ccccc2c(/C=C/C(=O)NC(CO)(CO)CO)c2ccccc12)NC(CO)(CO)CO 4.35
O=C(/C=C/c1c2ccccc2c(/C=C/C(=O)N2CCOCC2)c2ccccc12)N1CCOCC1 2.46
CC(=O)CC(C)(C)NC(=O)/C=C/c1c2ccccc2c(/C=C/C(=O)NC(C)(C)CC(C)=O)c2ccccc12 2.56

Provide log10 of Kd values for the following items, in order.
1. O=C(/C=C/c1c2ccccc2c(Br)c2ccccc12)N1CCOCC1
2. COc1ccc2cc3[n+](cc2c1OC)CCc1cc2c(cc1-3)OCO2
3. NC(=O)/C=C/c1c2ccccc2c(/C=C/C(N)=O)c2ccccc12

Reply text:
1. 3.25
2. 3.25
3. 3.32

---

# System: MCF7
# Method: Cytotoxicity against human MCF7 cells assessed as reduction of cell viability after 10 days by MTT assay
# Type: functional, cell-based
# Experimental parameters: MCF7, 240 h
Quantity kind: IC50 (nM)
One number for each entry, in nM.

Inquiry: Name the recorded IC50 of the compound listed here: NC(=O)/C=C/c1c2ccccc2c(/C=C/C(N)=O)c2ccccc12
Reply text: 2500

---

# Test system: unidentified
# Method: Selectivity ratio of ligand concentration required to displace thiazole orange from 22AG DNA (unknown origin) to same extent as percentage displacement from ds26 DNA (unknown origin) at 2.5 uM of compound
Quantity kind: Selectivity ratio
Give bare numbers.

Molecule	Selectivity ratio
CC(=O)CC(C)(C)NC(=O)/C=C/c1c2ccccc2c(/C=C/C(=O)NC(C)(C)CC(C)=O)c2ccccc12	5.6
O=C(/C=C/c1c2ccccc2c(/C=C/C(=O)N2CCOCC2)c2ccccc12)N1CCOCC1	0
O=C(/C=C/c1c2ccccc2c(/C=C/C(=O)NC(CO)(CO)CO)c2ccccc12)NC(CO)(CO)CO	0
NC(=O)/C=C/c1c2ccccc2c(/C=C/C(N)=O)c2ccccc12	33.3
COc1ccc2cc3[n+](cc2c1OC)CCc1cc2c(cc1-3)OCO2 [BERBERINE]	0.1

Switching to the query record.
Inquiry: Hello, please tell me recorded Selectivity ratio for this one: O=C(/C=C/c1c2ccccc2c(Br)c2ccccc12)N1CCOCC1
Reply text: 5
